# test details: Apparent permeability from basolateral to apical side in MDCK2 cells at 25 uM incubated for 15 to 180 mins by HPLC method
# Assay type: ADME, cell-based, Canis lupus familiaris, MDCK-II
# condition summary: dog, MDCK
property name: Papp B→A at 25 µM (×10⁻⁶ cm/s)
Give bare numbers, in ×10⁻⁶ cm/s.

Give a short answer stating reported Papp B→A at 25 µM for "NC(=O)c1cncc(Oc2cccc3c(NC(=O)c4ccccc4)cccc23)c1" .
4.35

----------
# experimental target: NAD-dependent protein deacetylase sirtuin-3, mitochondrial (Homo sapiens)
# condition summary: BL21-DE3, 100 uM
Hi there, I'd appreciate the recorded inhibition for every entry that follows.
Give bare numbers, in %.

[
  {
    "smiles string": "NC(=O)c1ccc(Sc2cccc3ccccc23)nc1",
    "experimental target": "NAD-dependent protein deacetylase sirtuin-3, mitochondrial (Homo sapiens)",
    "property name": "inhibition",
    "result value": 42
  }
]

Hi, could you look up inhibition for each item in my list?
1. NC(=O)c1ccc(Oc2cccc3ccccc23)nc1
2. Cc1ccc(C(=O)Nc2cccc3cccc(S(=O)(=O)O)c23)cc1

1: 39; 2: 10
